All values here come from patent US20230340111A1.

Target: T1, human FOLR1 recombinant protein (extracellular domain of human folate receptor alpha) (human, UniProt P15328 25-233)
T1 construct: Bought recombinant protein (Sino Biological); also called hFOLR1; FR-alpha
T1 sequence (P15328 25-233): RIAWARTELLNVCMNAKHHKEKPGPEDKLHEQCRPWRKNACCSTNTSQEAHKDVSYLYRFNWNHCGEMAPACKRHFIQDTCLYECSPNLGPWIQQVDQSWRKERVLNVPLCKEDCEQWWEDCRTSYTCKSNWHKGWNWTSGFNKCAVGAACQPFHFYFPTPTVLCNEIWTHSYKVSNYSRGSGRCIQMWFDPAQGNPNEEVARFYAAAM
Assay: SPR (Biacore T200), human FOLR1 immobilized on CM5, His6-tagged VHH as analyte, 1:1 fit
MEASURED PARAMETER: koff
Please don't drop the unit; write it after the number.

Provide reported koff for each item, in the same order as listed.
1. His6-tagged variant of VHH A3 (VHH, Purified, unlabelled; also called A3 His6-tag) VHH: DVQLVESGGGLVQAGGSLRLSCGVSGNMFSMNLMGWYRQPPGKERDWVAVITKDGSTNYADSVKGRFTISRDNAKNTVSLQMNSLKPEDTAVYYCNVQDGSGWIRAWGWDWGQGTQVTVSS
2. His6-tagged variant of VHH A2 (VHH, Purified, unlabelled; also called A2 His6-tag) VHH: DVQLVESGGGLVQAGGSLRLSCAADEMKFSNYDLAWYRRAPGKQRELAAIITSGGSTNYPDSVKGRFTISRDNAKNTVYLEMNSLKPEDTAVYYCNALRPWPQFSDYWGQGTQVTVSS
3. His6-tagged variant of VHH A5 (VHH, Purified, unlabelled; also called A5 His6-tag) VHH: DVQLVESGGGLVQAGGSLRLSCGVSGNIFSMNLMGWYRQPPGKEREWVALITKDGSTNYEDSVKGRFTISRDNAKNTVSLQMNSLKPEDTAVYYCNAQDGSGWIRAWGWDWGQGTQVTVSS

Solution:
0.0011 s⁻¹
0.00033 s⁻¹
0.018 s⁻¹
